The measured values listed here are drawn from PubChem BioAssay.

Assay: S. cerevisiae growth inhibition in permissive medium (OD615), pilot counter-assay for S. cerevisiae lifespan shortening project, permissive growth control (AID 705)
Settings: OD615, 24 h, at 10 µM, stronger effect = higher value
property-label: growth inhibition (%)
One number for each entry, in %.

Please review the following examples before continuing.
>>> print(df.to_string())
                                   compound     property_label  value_units  value
0  COc1ccc(NC(=O)Nc2ccc(N3CCCC3=O)cc2)cc1OC  growth inhibition            %   -1.9
1  CCn1c(=O)c2cc(C(=O)NCCN3CCOCC3)sc2c2ccccc21  growth inhibition            %  -7.14
2  CCOc1ccccc1NC(=O)C1CCN(S(=O)(=O)c2cccc3cccnc23)CC1  growth inhibition            %   1.06
3       CCOc1ccc(-c2nc(-c3ccccc3)no2)cc1OCC  growth inhibition            %  -16.6
4  CC(=O)NC(CCS(C)(=O)=O)C(=O)Nc1cccc(C)c1 (stereo unspecified)  growth inhibition            %  -12.4

Required: growth inhibition, one value per compound below.
1. COc1ccccc1-c1cc(C(F)(F)F)nc(N2CCOCC2)n1
2. CC1(C)CC(=O)c2cnc(NC(=O)CCc3ccccc3)nc2C1
3. CNC(=O)C1C2C=CC3(O2)C1C(=O)N(C1CC1)C3C(=O)NCc1ccc(OC)cc1 (stereo unspecified)
4. CCCC(=O)C1=C(N(C)c2ccccc2)CC(C)(C)C(C(=O)OC)C1=O (stereo unspecified)
5. Cn1c2c(c(=O)n(C)c1=O)C1c3ccccc3OCC1C(C)(C)O2 (stereo unspecified)
6. Cn1c(Cn2c(=O)sc3ccccc32)nnc1SCC(=O)Nc1ccccc1

[-8.95, -7.5, -12.6, -1.78, -15.4, -7.53]

---

What viability was measured for each of the following?
Test: Her2 expression decrease, cell viability multiplex – SKBR3 breast tumor cells, AlphaScreen, ATP viability, primary screen (AID 461);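 note: percent of carrier control wells set as 100% viability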
Conditions: SKBR3 Her2 protein level, 18-24 h, measured here: SKBR3 viability, ATP luminescence, at 10 µM
Answers are plain numbers, in %.

Solved cases below.
                                   compound  value_units  value
0  Cc1ccc(C(C)C)c(OCCCN2CC(C)OC(C)C2)c1 (stereo unspecified)            %   98.5
1  COc1ccc(-c2nc(CSCC(=O)NCc3ccc4c(c3)OCO4)c(C)o2)cc1OC            %     98
2  O=C(C(Cc1ccccc1)n1cccc1)N1CCCCCC1 (stereo unspecified)            %     99
3             Brc1ccccc1-c1nc(-c2ccccc2)no1            %     88
4  Oc1c(C(c2ccccc2)N2CCc3ccccc3C2)sc2ncnn12 (stereo unspecified)            %   87.5

# batch size: 6; output viability per entry
1. CNC(=O)CN(c1ccc(C(C)C)cc1)S(C)(=O)=O
2. CN(C1CCCCC1)S(=O)(=O)c1ccc(S(=O)(=O)N2CCN(CCC#N)CC2)cc1
3. CCC(C)(NC(=O)CNC(C)=O)C(=O)NC1CCCCC1 (stereo unspecified)
4. CCOC(=O)c1ccccc1NC(=O)c1cccnc1
5. CC(=O)c1ccc(OCC(O)CN2CCN(Cc3ccc4c(c3)OCO4)CC2)cc1 (stereo unspecified)
6. Cc1cccnc1-n1c(CCN2C(=O)c3ccccc3C2=O)nc2ccccc2c1=O

94
89.5
130
83
102
89.5

---

Assay: HUVEC growth inhibition – cell-based, human, primary screen (AID 575);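 note: 100% = median of untreated cell wells with 0.1% DMSO on each plate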
Settings: HUVEC proliferation, CellTiter-Glo luminescence, 72 h; at 10 µM; stronger effect = lower value
property-label: viability (%)
Answers are plain numbers, in %.

                                   molecule  property_label  value
0  Cc1cccc(Cn2c(SCC(=O)Nc3ccccc3)nc3c2c(=O)[nH]c(=O)n3C)c1       viability   93.9
1  COc1cc2c(cc1OC)-c1nnc(-c3cccs3)n1C(C)(C)C2       viability    114
2  CCOC(=O)N1CCC(NC(=O)Cn2c3c(c(-c4ccccc4Cl)cc2=O)CCC3)CC1       viability    123
3  O=C(CC1Oc2ccccc2NC1=O)NCCCN1CCOCC1 (configuration not stated)       viability   85.5

Below is a list of molecules. For each, state its recorded viability.
1. O=C(CCN1C(=O)c2ccccc2C1=O)Nc1ccc(F)cc1
2. CC(C)c1ccc(-c2nc(N3CCCCC3)[nH]c(=O)c2C#N)cc1

1: 116; 2: 83.3

State recorded viability for all listed molecules.
1. CCOc1ccc(N(CC(=O)Nc2ccc(C)c(C)c2)S(=O)(=O)c2c(C)noc2C)cc1
2. CCn1cc(SCC(=O)NCC2CCCO2)c2ccccc21 (configuration not stated)

1: 68.8; 2: 102

---

Assay: S. cerevisiae growth inhibition in restrictive medium, OD615, pilot screen, restrictive growth control, yeast lifespan reduction project (AID 706);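 note: modified DeaD lifespan yeast strain shifted to restrictive glucose medium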
Settings: OD615, 48 h, at 10 µM, stronger effect = higher value
Active and inactive are the calls of the source.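 Rule for the calls: active = growth inhibition above a set limit, 3 SD over mean compound inhibition, in both replicates (cut at about 43% in these data); inconclusive = above the limit in only one replicate; inactive = at or below the limit in both replicates.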
Hi there, I'd appreciate the recorded growth inhibition for every entry that follows.

Here is how some compounds turned out for growth inhibition.
>>> df
                                   compound     property_label              value
0    COc1c(S(=O)(=O)n2nc(C)cc2C)ccc(Cl)c1Cl  growth inhibition   8.94% (inactive)
1  C=CCn1c(SC(C)C(=O)NC2(C#N)CCCCC2)nnc1-c1ccc(OC)cc1 (centres undefined)  growth inhibition  -9.22% (inactive)
2    CCOC(=O)N1CCC(Nc2nc3ccccc3n3cnnc23)CC1  growth inhibition  -10.8% (inactive)
3     O=C(CCN1C(=O)c2ccccc2C1=O)NCCN1CCOCC1  growth inhibition  -6.59% (inactive)
4  CCN1CCN(Cc2nc3c(c(=O)n(C)c(=O)n3C)n2CC(=O)c2ccccc2)CC1  growth inhibition    -14% (inactive)

Kindly give each listed record's growth inhibition.
1. CCOC(=O)N1CCC(NC(=O)c2cnn3ccccc23)CC1
2. Cc1ccc(N=Cc2ccc[nH]2)c(O)c1
3. CCOc1ccc(-n2nnc3c(=O)n(CC(=O)c4ccccc4)cnc32)cc1
4. CCCNC(=O)C1CC(=O)N(c2ccc(OCC(=O)Nc3cc(C)cc(C)c3)cc2)C1 (centres undefined)
5. Cc1nc2ccc(NC(=O)c3ccc(Cl)s3)cc2s1
6. CCOC(=O)C1CCCN(C(=O)c2ccc(CNc3c(N4CCC(C)CC4)c(=O)c3=O)cc2)C1 (centres undefined)
7. Cc1ccc2oc(=O)c3cnn(CC(=O)N4CCCc5ccccc54)c3c2c1
8. Cc1n[nH]c(C)c1N1C(=O)c2cccc3cc(Br)cc(c23)C1=O

1. -10.7% (inactive)
2. -5.83% (inactive)
3. 1.56% (inactive)
4. -25.6% (inactive)
5. -7.74% (inactive)
6. -24.3% (inactive)
7. -5.59% (inactive)
8. -11.6% (inactive)

For the 5 compounds below, give their growth inhibition values.
1. COc1ccc(S(=O)(=O)N2CCC(C(N)=O)CC2)cc1
2. CCOC(=O)N1CCC(NC(=O)c2cc3ccccn3n2)CC1
3. CC1(C)CC(=O)C(C=NCCO)=C(O)C1
4. Cc1ccc(-n2ncc3c(=O)[nH]c(SC(C)C)nc32)cc1
5. O=C(COc1ccc(=O)n(-c2ccccc2)n1)Nc1ccccc1

-3.14% (inactive)
1.79% (inactive)
-3.12% (inactive)
-5.77% (inactive)
9.99% (inactive)

Your task in this section: give growth inhibition for each listed record.
1. Cc1ccc(-c2cc(C(F)F)nc(NCc3cccnc3)n2)cc1
2. CC(=O)NC(C)c1nc2ccccc2n1C(C)C (centres undefined)
3. COc1ccc(-c2nc(CS(=O)CC(=O)NCc3ccccn3)c(C)o2)cc1 (centres undefined)
4. CCCCOCCCNC(=O)COc1ccccc1
5. COCCCNC(=O)CSc1ccc(Cl)cc1
6. CCCCn1c2c(c3ccccc31)CCc1nonc1-2

["-8.25% (inactive)", "-15.8% (inactive)", "18% (inactive)", "-5.04% (inactive)", "-6.93% (inactive)", "-29.4% (inactive)"]

---

Assay: RAM signaling pathway blockade in yeast – S. cerevisiae, Pdr1DBD-CYC8 efflux-inhibited sensitized strain, primary screen (AID 1298);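 note: 0% = DMSO untreated cells without growth and 100% = 10 µM 1-NA-PP1 full growth; higher means more yeast growth rescued from 5-FOA killing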
Conditions: S. cerevisiae cbk1-as DSE1-URA3 strain, 5-FOA growth OD615, 2 d; at 50 µM; stronger effect = higher value
Threshold check on RAM network inhibition: at or above 3% gives true (1), strictly below gives false (0).

Exam item: decide whether the reported RAM network inhibition for "Fc1ccc(CN2CCCCCCC2)cc1F" is at least 3%.
false (0)

Follow-up item: "Cc1ccc2oc(=O)c3cnn(CC(=O)NCCc4ccsc4)c3c2c1"
true (1)

Queued: "O=c1oc2c3c4c(cc2s1)CCCN4CCC3"
true (1)

Here is the next compound: "CS(=O)(=O)NCCSCc1c(F)cccc1Cl"
false (0)

Let us now turn to Cc1cc(N2C(=O)C3C4c5ccccc5C(c5ccccc54)C3C2=O)no1 (stereo unspecified)
true (1)

Then what about the compound "Cc1cccc(NC(=O)c2ccc(S(=O)(=O)N(C)C)cc2)c1" ?
false (0)
